All values here come from patent US6489475B2.

# reported Result of Exp. Ex. 2: reduction of serum total cholesterol; entries follow
System: Male Wister rats
Experiment: Serum total cholesterol reducing effect in rats on high cholesterol feed
Assay type: in vivo
Conditions: dose 10 mg/kg/day, oral, once a day for 3 days, rat
Marks after values point to notes of the source that are not given here.

Answered examples (5):
1) CCCCCCN1CCc2c(C)cc(C)c(NC(=O)C(C)(C)CCCCCC)c21	35.0 * %
2) CCCCCCN1CCc2c(C)cc(C)c(NC(=O)C(C)C)c21	27.0 * %
3) CCCCCCCCN1CCc2c(C)cc(C)c(NC(=O)C(C)(C)C)c21	59.5 * %
4) CCCCCCN1CCc2c(C)cc(C)c(NC(=O)C(C)(C)CCC(=O)O)c21	7.8 * %
5) CC(C)(Sc1cc(C(C)(C)C)c(O)c(C(C)(C)C)c1)Sc1cc(C(C)(C)C)c(O)c(C(C)(C)C)c1 [Probucol, reference compound]	7.3 * %

# context switch: different molecule, same Result of Exp. Ex. 2: reduction of serum total cholesterol
Request the reported Result of Exp. Ex. 2: reduction of serum total cholesterol associated with CCCCCCN1CCc2c(C)cc(C)c(NC(=O)CCCC)c21
28.3 * %

###

System: plasma
Assay: Plasma lipoperoxidation inhibitory effect (copper sulfate, malondialdehyde by thiobarbituric acid method)
Assay type: biochemical, rabbit
Details: concentration 10^-5M; 37°C, 3 hours; malondialdehyde production inhibitory ratio
# Result of Exp. Ex. 4: plasma lipoperoxidation inhibition per record follows
Just the number please, in %, no unit attached.

Before answering, review these 4 worked examples.
1. CCCCCCN1CCc2c1cc(C)c(NC(=O)C(C)(C)C)c2C	95.8
2. CCCCCCC(C)(C)C(=O)Nc1c(C)cc(C)c2c1N(CC)CC2	87.1
3. CC(=O)OCCN1CCc2c(C)cc(C)c(NC(=O)C(C)(C)C)c21	92.8
4. CCCCCCN1CCc2c1cc(C)c(NC(=O)NCCCC)c2C	94.3

Data request, read-out Result of Exp. Ex. 4: plasma lipoperoxidation inhibition, for CCCCCCN1CCc2c(C)cc(C)c(NC(=O)NCCCC)c21
92.0

###

The entries below are paired with their reported Result of Exp. Ex. 4: plasma lipoperoxidation inhibition.
Tested on: plasma
Test: Plasma lipoperoxidation inhibitory effect (copper sulfate, malondialdehyde by thiobarbituric acid method)
Assay type: biochemical, rabbit
Conditions: concentration 10^-5M; 37°C, 3 hours; malondialdehyde production inhibitory ratio
API: value field is a number in %; no unit string.

1) CCCCCCN1CCc2c(C)cc(C)c(NC(=O)C(C)C)c21	91.1
2) CCCCCCN1CCc2c(C)cc(C)c(NC(=O)C(C)(C)CCCCCC)c21	90.1
3) CCCCCCN1CCc2c(C)cc(C)c(NC(=O)CCCC)c21	91.4
4) Cc1cc(C)c(NC(=O)C(C)(C)C)c2c1CCN2CC(C)C	89.1
5) Cc1cc(C)c(NC(=O)C(C)(C)C)c2c1CCN2CCC(C)C	90.8

Endpoint output: Result of Exp. Ex. 4: plasma lipoperoxidation inhibition of CCCCCCN1CCc2c(C)cc(C)c(NC(=O)C(C)(C)CCC(=O)O)c21 . Value?
91.1

// same read-out, input: CC(C)(Sc1cc(C(C)(C)C)c(O)c(C(C)(C)C)c1)Sc1cc(C(C)(C)C)c(O)c(C(C)(C)C)c1 [Probucol, reference compound]
87.5

Another: CCCCCCN1CCc2c(C)cc(C)c(NC(=O)C(C)(C)COCC)c21
89.8
